Just for reference, paper PMC4336329 is where these values come from.

Readings of hERG current change (%, negative = inhibition) at 10uM for the listed compounds
- TARGET: human ether-à-go-go-related gene (hERG) potassium channel (human, UniProt Q12809);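 further: peak tail current of the secondary pulse compared with the same well before compound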
- Sequence (Q12809 whole entry, looked up): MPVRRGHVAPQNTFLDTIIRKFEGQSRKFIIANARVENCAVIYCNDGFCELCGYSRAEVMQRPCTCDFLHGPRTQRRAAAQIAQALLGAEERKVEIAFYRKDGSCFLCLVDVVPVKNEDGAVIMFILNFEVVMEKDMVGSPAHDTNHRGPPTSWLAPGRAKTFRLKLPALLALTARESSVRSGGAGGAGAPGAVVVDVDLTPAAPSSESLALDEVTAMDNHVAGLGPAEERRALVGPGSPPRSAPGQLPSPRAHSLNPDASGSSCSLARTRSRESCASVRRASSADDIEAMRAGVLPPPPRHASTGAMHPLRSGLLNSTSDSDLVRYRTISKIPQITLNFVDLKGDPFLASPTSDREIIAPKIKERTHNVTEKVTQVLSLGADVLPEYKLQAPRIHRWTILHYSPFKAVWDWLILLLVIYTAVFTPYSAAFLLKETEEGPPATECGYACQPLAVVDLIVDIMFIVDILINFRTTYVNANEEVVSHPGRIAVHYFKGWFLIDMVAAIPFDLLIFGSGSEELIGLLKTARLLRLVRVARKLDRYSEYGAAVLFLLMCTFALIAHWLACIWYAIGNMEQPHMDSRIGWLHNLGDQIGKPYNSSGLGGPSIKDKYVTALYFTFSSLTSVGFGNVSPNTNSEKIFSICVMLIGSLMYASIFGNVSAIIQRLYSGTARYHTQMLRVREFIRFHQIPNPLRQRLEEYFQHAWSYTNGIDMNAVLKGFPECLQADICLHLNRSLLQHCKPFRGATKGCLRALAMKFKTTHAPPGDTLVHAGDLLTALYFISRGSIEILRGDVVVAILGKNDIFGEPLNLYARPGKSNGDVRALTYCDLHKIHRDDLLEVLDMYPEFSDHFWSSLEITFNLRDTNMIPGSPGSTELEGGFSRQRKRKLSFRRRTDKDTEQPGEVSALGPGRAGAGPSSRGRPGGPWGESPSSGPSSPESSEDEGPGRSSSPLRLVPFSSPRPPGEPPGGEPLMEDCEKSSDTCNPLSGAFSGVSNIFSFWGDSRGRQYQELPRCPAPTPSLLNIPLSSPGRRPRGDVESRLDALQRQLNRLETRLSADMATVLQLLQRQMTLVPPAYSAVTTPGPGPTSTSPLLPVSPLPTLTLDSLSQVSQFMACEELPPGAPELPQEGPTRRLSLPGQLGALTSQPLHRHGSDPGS
- ASSAY_NAME: primary screen, population patch clamp on CHO cells stably expressing hERG; higher = less effect of the substance
Hit rate of the full screen: of about 310,000 compounds, about 14,000 (4.5%) showed an effect of 50% or more. Effects have a minus sign here. Many of the other results were omitted from the sample, so strong results are more common in it than they were.
MEASUREMENT_NAME: hERG current change (%, negative = inhibition) at 10uM (%)

>>> df
                                    compound  assay_value
 0  CC1CCN(c2ccccc2NC(=O)c2cc([N+](=O)[O-])ccc2N2CCOCC2)CC1        -2.63
 1  CC(C)C(=O)N1CCN(c2ccccc2NC(=O)c2ccc([N+](=O)[O-])o2)CC1          -63
 2    Cc1ccc2[nH]c3c(NCCCN4CCCC4=O)ncnc3c2c1        -13.7
 3  COc1ccc(CCNC(=O)CS(=O)Cc2nc(-c3ccccc3F)oc2C)cc1OC (centres unmarked)           13
 4  O=C(NCCN1CCN(C(=O)c2cccc(Br)c2)CC1)C(=O)NCc1ccccc1          -70
 5    CCSCc1nnc(SCC(=O)Nc2cccc(C(C)=O)c2)n1C         11.9
 6        Cn1ccnc1SCC(=O)N(C1CCCCC1)C1CCCCC1         3.29
 7     Clc1ccc2[nH]c3c(NCCN4CCOCC4)ncnc3c2c1        -61.8
 8  CC(NC(=O)C(=O)NCCN1CCN(C(=O)c2ccc([N+](=O)[O-])cc2)CC1)c1ccccc1 (centres unmarked)        -75.1
 9             Cc1ccc2ncnc(NCCCN3CCOCC3)c2c1        -13.6
10  CC(NC(=O)C(=O)NCCN1CCN(C(=O)c2ccccc2Br)CC1)c1ccccc1 (centres unmarked)         6.37
11  CC1CCN(c2ccccc2NC(=O)c2ccc([N+](=O)[O-])o2)CC1           25
12         Cn1cc(/C(Cc2ccccc2)=N\O)c2ccccc21         4.78
13  CS(=O)(=O)N1CCN(c2ccccc2NC(=O)c2ccc([N+](=O)[O-])o2)CC1        -25.2
14  COc1cc(OC)c2ccc(=O)oc2c1C(CCN1CCCC1)c1ccc(N(C)C)cc1 (centres unmarked)        -24.1
15              CCn1c(COc2ccccc2OC)nnc1SCC#N        -3.43
16  CCc1ccccc1NC(=O)c1cc([N+](=O)[O-])ccc1N1CCOCC1        -16.5
17  O=C(O)CCC(C(=O)O)n1c(O)c(C2=c3ccccc3=NC2=O)sc1=S (centres unmarked)         20.5
18  O=C(NCCN1CCN(c2ccc([N+](=O)[O-])cc2)CC1)NCc1ccccc1        -67.7
19  O=C(c1ccc([N+](=O)[O-])cc1)N1CCc2ccccc2C1        -44.7

----------
- TARGET: human ether-à-go-go-related gene (hERG) potassium channel (human);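 further: peak tail current of the secondary pulse compared with the same well before compound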
- ASSAY_NAME: primary screen, population patch clamp on CHO cells stably expressing hERG; higher = less effect of the substance
Hit rate of the full screen: of about 310,000 compounds, about 14,000 (4.5%) showed an effect of 50% or more. Effects have a minus sign here. The sample as a whole holds a higher share of strong results than the screen did.
MEASUREMENT_NAME: hERG current change (%, negative = inhibition) at 10uM (%)

>>> print(df.to_string())
                                    molecule  assay_value
 0  Cc1ccc(OCC(=O)Nc2ccc(S(=O)(=O)Nc3ccccn3)cc2)cc1C         24.4
 1  COc1ccc(/C=C2\C(=O)c3ccccc3OC2c2ccccc2)cc1 (centres unmarked)         7.66
 2  Cc1ccc2oc(=O)c3cc(C(=O)NCCCN4C(C)CCCC4C)sc3c2c1 (centres unmarked)        -61.6
 3  O=C(COc1ccc(S(=O)(=O)N2CCOCC2)cc1)Nc1cccc([N+](=O)[O-])c1          -39
 4                    CCN(CC)CCOCCOc1ccccc1F        -3.91
 5  Cc1ccc2oc(=O)c3cc(C(=O)NCCCN4CCCC(C)C4)sc3c2c1 (centres unmarked)        -34.9
 6  Cc1ccc2oc(=O)c3cc(C(=O)NCCCN4CC(C)CC(C)C4)sc3c2c1 (centres unmarked)        -49.2
 7           CN1CCC(NC(=O)Cc2c(F)cccc2Cl)CC1        -1.52
 8  O=C1CCN(Cc2nnnn2CC2CCCO2)c2ccccc2N1 (centres unmarked)         2.18
 9  CCN1CCN(CCCNC(=O)c2cc3c(=O)oc4ccc(C)cc4c3s2)CC1        -19.1
10  O=C(COc1ccc([N+](=O)[O-])cc1)Nc1ccc(N2CCCC2)cc1         12.1
11  CN1CCN(CCCNC(=O)c2cc3c(=O)oc4ccccc4c3s2)CC1        -14.2
12  Cc1ccc2oc(=O)c3cc(C(=O)NCCCN4CCN(C)CC4)sc3c2c1        -5.62
13      Cc1ccc(Nc2nc(NCCO)c3ccccc3n2)cc1C.Cl        -52.4
14  CC(=O)Nc1ccc2c(c1)N(S(=O)(=O)c1cccs1)CCC2        -3.79
15  CCN1CCN(c2ccc(NC(=O)COc3ccc([N+](=O)[O-])cc3)cc2)CC1        -54.3
16  Cc1cc(C=O)c(C)n1-c1ccc(Oc2ccc([N+](=O)[O-])cn2)cc1        -56.7
17  Cc1ccc2oc(=O)c3cc(C(=O)NCCCN4CCCCCC4)sc3c2c1        -40.2
18  CC1(/[N+]([O-])=C\c2ccccc2F)CCCCC1=O (centres unmarked)         8.53
19  COc1cc(C(=O)NCc2nnc(SCC(=O)NCc3ccccc3)o2)cc(OC)c1OC         17.6
